B1: RPS21 (parent)
chain: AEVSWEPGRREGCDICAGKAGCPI

Variants of: B1
Test: protein stability index of a GFP-peptide fusion (GPS, HEK-293T) (PSI 1-6); higher = more stable;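 further: lentivirally expressed fusions sorted by FACS into six bins by GFP to DsRed ratio, PSI derived from sequencing read proportions per bin multiplied by bin number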
Settings: c terminus: a fixed tail appended
observed-property: protein stability index
Answer as a number with no unit attached.

Look over these answered cases.
>>> df
   mutation_annotation  numeric_value
0                  E6C           2.23
1                  R9T           3.67
2                 A17M           2.29
3                 E11G           1.99
4                  R9P           3.26
5                  E2Q           2.36
6                 G18T           3.28
7                 C22H            2.9
8                  E6G           2.36
9                 G21R           2.75

What the record says about D14I : protein stability index is 3.65

What the record says about A1Y : protein stability index is 2.76

What the record says about R9N : protein stability index is 3.35

What the record says about R9F : protein stability index is 3.89

What the record says about R9M : protein stability index is 3.02

What the record says about R9W : protein stability index is 2.67
